Species on record: Mus musculus
Experiment: Tumor free mice out of 6 surviving to day 30 or beyond was determined
Assay type: functional

COMPOUND	Survivors
CNP(=O)(N1CC1(C)C)N1CC1(C)C (centres undefined)	1
CCOP(=O)(N1CC1(C)C)N1CC1(C)C (centres undefined)	2
CCCNP(=O)(N1CC1(C)C)N1CC1(C)C (centres undefined)	2
COCCCNP(=O)(N1CC1(C)C)N1CC1(C)C (centres undefined)	1

====

System: P388
Assay: Compound was evaluated for the antineoplastic activity against P388 leukemia at an optimal dose of 256 mg/kg administered intraperitoneally
Assay type: functional, Mus musculus
Conditions: route intraperitoneal
Criterion: T/C strictly less than 200%. Met: yes. Not met: no.

MOLECULE	CAT
CC1(C)CN1P(=O)(N1CCOCC1)N1CC1(C)C (centres undefined)	no
COCCCNP(=O)(N1CC1(C)C)N1CC1(C)C (centres undefined)	no
CCCNP(=O)(N1CC1(C)C)N1CC1(C)C (centres undefined)	no
CC1(C)CN1P(=O)(NC1CCCCC1)N1CC1(C)C (centres undefined)	yes
CC1(C)CN1P(=O)(N1CCCCC1)N1CC1(C)C (centres undefined)	no
CCNP(=O)(N1CC1(C)C)N1CC1(C)C (centres undefined)	no
CCCCNP(=O)(N1CC1(C)C)N1CC1(C)C (centres undefined)	no
CC1(C)CN1P(=O)(Nc1ccccc1)N1CC1(C)C (centres undefined) [PHOSPHINIC ANILIDE DERIVATE]	yes
